Exercise: state measured CC50 at 4 day for each of the compounds provided.
- experiment: Compound cytotoxicity, XTT-based colorimetric assay
- Type: cell-based
- cond: human; uninfected MT2 cells, day 4, XTT

# input Fill in the blank: the reported CC50 at 4 day of Cn1nc(NS(C)(=O)=O)c2c(Cl)ccc(-n3c([C@H](Cc4cc(F)cc(F)c4)NC(=O)Cn4nc(C(F)F)c5c4C(F)(F)[C@@H]4C[C@H]54)nc4cc(Cc5ccccc5)ccc4c3=O)c21 (atropisomer, axis not shown; (P)) is ____.
# output > 1000 nM

# input Fill in the blank: the reported CC50 at 4 day of Cn1nc(NS(C)(=O)=O)c2c(Cl)ccc(-n3c([C@H](Cc4cc(F)cc(F)c4)NC(=O)Cn4nc(C(F)F)c5c4C(F)(F)[C@@H]4C[C@H]54)nc4cc(C5(C(F)(F)F)CC5)ccc4c3=O)c21 (atropisomer, axis not shown; (P)) is ____.
# output > 500 nM

---

Exercise: state measured CC50 at 4 day for each of the compounds provided.
- experiment: Compound cytotoxicity, XTT-based colorimetric assay
- Format: cell-based
- cond: human; uninfected MT2 cells, day 4, XTT

# input Fill in the blank: the reported CC50 at 4 day of COC(C)(C)CCc1ccc2c(=O)n(-c3ccc(Cl)c4c(NS(C)(=O)=O)nn(C)c34)c([C@H](Cc3cc(F)cc(F)c3)NC(=O)Cn3nc(C(F)F)c4c3C(F)(F)[C@@H]3C[C@H]43)nc2c1 (atropisomer, axis not shown; (P)) is ____.
# output > 500 nM

# input Fill in the blank: the reported CC50 at 4 day of CS(=O)(=O)Nc1nn(CC(F)F)c2c(-n3c([C@H](Cc4cc(F)cc(F)c4)NC(=O)Cn4nc(C(F)F)c5c4C(F)(F)[C@@H]4C[C@H]54)nc4cc(C5CCOCC5)ccc4c3=O)ccc(Cl)c12 (atropisomer, axis not shown; (P)) is ____.
# output > 500 nM

# input Fill in the blank: the reported CC50 at 4 day of CS(=O)(=O)Nc1nn(CC(F)F)c2c(-n3c([C@H](Cc4cc(F)cc(F)c4)NC(=O)Cn4nc(C(F)F)c5c4C(F)(F)[C@@H]4C[C@H]54)nc4cc(C5=CCOCC5)ccc4c3=O)ccc(Cl)c12 (atropisomer, axis not shown; (P)) is ____.
# output > 500 nM

# input Fill in the blank: the reported CC50 at 4 day of C[C@@H]1CC(c2ccc3c(=O)n(-c4ccc(Cl)c5c(NS(C)(=O)=O)nn(C)c45)c([C@H](Cc4cc(F)cc(F)c4)NC(=O)Cn4nc(C(F)F)c5c4C(F)(F)[C@@H]4C[C@H]54)nc3c2)C[C@H](C)O1 (stereo partly drawn) is ____.
# output > 500 nM

# input Fill in the blank: the reported CC50 at 4 day of C[C@@H]1CC(c2ccc3c(=O)n(-c4ccc(Cl)c5c(NS(C)(=O)=O)nn(CC(F)F)c45)c([C@H](Cc4cc(F)cc(F)c4)NC(=O)Cn4nc(C(F)F)c5c4C(F)(F)[C@@H]4C[C@H]54)nc3c2)=C[C@H](C)O1 (atropisomer, axis not shown; (P)) is ____.
# output > 500 nM

# input Fill in the blank: the reported CC50 at 4 day of Cn1nc(NS(C)(=O)=O)c2c(Cl)ccc(-n3c([C@H](Cc4cc(F)cc(F)c4)NC(=O)Cn4nc(C(F)F)c5c4C(F)(F)[C@@H]4C[C@H]54)nc4cc(CCC(=O)N5CCOCC5)ccc4c3=O)c21 is ____.
# output > 1000 nM

---

- experiment: Compound cytotoxicity, XTT-based colorimetric assay
- Format: cell-based
- cond: human; uninfected MT2 cells, day 4, XTT
Exercise: state measured CC50 at 4 day for each of the compounds provided.

# input Fill in the blank: the reported CC50 at 4 day of Cn1nc(NS(C)(=O)=O)c2c(Cl)ccc(-n3c([C@H](Cc4cc(F)cc(F)c4)NC(=O)Cn4nc(C(F)F)c5c4C(F)(F)[C@@H]4C[C@H]54)nc4cc(C5CCOCC5)ccc4c3=O)c21 (atropisomer, axis not shown; (P)) is ____.
# output > 1000 nM

# input Fill in the blank: the reported CC50 at 4 day of Cn1nc(NS(C)(=O)=O)c2c(Cl)ccc(-n3c([C@H](Cc4cc(F)cc(F)c4)NC(=O)Cn4nc(C(F)F)c5c4C(F)(F)[C@@H]4C[C@H]54)nc4cc(C(F)(F)C5CCC5)ccc4c3=O)c21 (atropisomer, axis not shown; (P)) is ____.
# output > 500 nM

# input Fill in the blank: the reported CC50 at 4 day of CCCCCCCCc1ccc2c(=O)n(-c3ccc(Cl)c4c(NS(C)(=O)=O)nn(C)c34)c([C@H](Cc3cc(F)cc(F)c3)NC(=O)Cn3nc(C(F)F)c4c3C(F)(F)[C@@H]3C[C@H]43)nc2c1 (atropisomer, axis not shown; (P)) is ____.
# output > 1000 nM

# input Fill in the blank: the reported CC50 at 4 day of CC(C)=C(C)c1ccc2c(=O)n(-c3ccc(Cl)c4c(NS(C)(=O)=O)nn(C)c34)c([C@H](Cc3cc(F)cc(F)c3)NC(=O)Cn3nc(C(F)F)c4c3C(F)(F)[C@@H]3C[C@H]43)nc2c1 (atropisomer, axis not shown; (P)) is ____.
# output > 1000 nM

# input Fill in the blank: the reported CC50 at 4 day of C[C@@H]1CC(c2ccc3c(=O)n(-c4ccc(Cl)c5c(NS(C)(=O)=O)nn(C)c45)c([C@H](Cc4cc(F)cc(F)c4)NC(=O)Cn4nc(C(F)F)c5c4C(F)(F)[C@@H]4C[C@H]54)nc3c2)=C[C@H](C)O1 (atropisomer, axis not shown; (P)) is ____.
# output > 500 nM

# input Fill in the blank: the reported CC50 at 4 day of CN1CC=C(c2ccc3c(=O)n(-c4ccc(Cl)c5c(NS(C)(=O)=O)nn(C)c45)c([C@H](Cc4cc(F)cc(F)c4)NC(=O)Cn4nc(C(F)F)c5c4C(F)(F)[C@@H]4C[C@H]54)nc3c2)CC1 (atropisomer, axis not shown; (P)) is ____.
# output > 1000 nM

# input Fill in the blank: the reported CC50 at 4 day of Cn1nc(NS(C)(=O)=O)c2c(Cl)ccc(-n3c([C@H](Cc4cc(F)cc(F)c4)NC(=O)Cn4nc(C(F)F)c5c4C(F)(F)[C@@H]4C[C@H]54)nc4cc(CCc5ccccc5)ccc4c3=O)c21 (atropisomer, axis not shown; (P)) is ____.
# output > 1000 nM

# input Fill in the blank: the reported CC50 at 4 day of O=C(Cn1nc(C(F)F)c2c1C(F)(F)[C@@H]1C[C@H]21)N[C@@H](Cc1cc(F)cc(F)c1)c1nc2cc(C3=CCOCC3)ccc2c(=O)n1-c1ccc(Cl)c2c(NS(=O)(=O)C3CC3)nn(CC(F)F)c12 is ____.
# output > 500 nM

Sourced from patent US20210393633A1
